Recorded values, source paper PMC6908968.

Molecular target: EBOV GP ectodomain residues 1-636 (GPec) (Zaire ebolavirus, strain  …, UniProt Q05320)
Endpoint Name: binding result

1) 5.6.c3013 (antibody, V domains shown) VH: QVQLVQSGAEVKKPGASVKVSCKASGYTFTKYGISWMRQAPGQGLEWMGWISAYNGDTNYAQKLHGRLTMTTDTSTSTVYMELRSLRSDDTAIYYCARDLGELSSLKFYGMDVWGQGTTVTVSS VL: DIQLTQSPSFLSASVGDRVTITCRASQGISSFLAWYQQKPGKAPKILVYGASTLQSGVPSRFSGSGSGTEFTLTISSLQPEDFATYYCQQVNTFPFTFGPGTQVDFK ... binds
2) 5.6.c3168 (antibody, V domains shown) VH: EVQLVESGGGLVQPGGSLRLSCAASGFTLSNYDMNWVRQAPGKRLEWVSYISSSGSTTYYVDSVKGRFTISRDNAKNSLYLQMNSLRAEDTAVYYCARGHNNWFLYFDSWGQGTLVTVSS VL: EILMTQSPATLSVSPGERATLSCRASQSVSSNLAWYQQVPGQAPRLLISDASTRATGIPARFSGSGSGTEFTLTINSLQSEDFAVYYCQQYNDWPGTFGQGTKLEIK ... binds
3) 15.0.c775 (antibody, V domains shown) VH: EEQLLESGGGLVQPGGSLRLSCAASGFTFSGYDMSWVRQAPGKGLEWVSLLSWSGDAKYYADSVKGRFTISRDNSKNTLYLQMNSLRAEDTAVYYCAGDSSGYNNERLYYTYYMDVWGKGTTVTVSS VL: DIQMTQSPSSVSASVGDRVTITCRANQAISSWLAWYQQKPGKAPKLLISAASSLQSGVPPRFSGSGSGTDFTLTISSLQPEDFATYYCQQANSFPLTFGGGTKVEIK ... binds
